These data points were gathered from patent US5422341A.

I'd be grateful if you could share measured T1/2 for these entries.
Assay type: in vitro ADME, hog
Conditions: pH 7
Square brackets hold non-standard residues; d marks the D form. Peptide text beside a SMILES is read from it. * marks the point of attachment. X1 = C[N+](C)(C)[C@@H](Cc1ccccc1)C(=O)*; NMeF = CN[C@@H](Cc1ccccc1)C(=O)O
In your answer, state the number alone without any accompanying words.

Just so you know, measured T1/2 for CC[C@H](C)[C@H](NC(=O)[C@@H]1CCCN1C(=O)[C@@H](NC(=O)[C@H](Cc1ccccc1)NC)C(C)C)C(=O)N[C@@H](Cc1ccccc1)C(=O)N[C@H](C(=O)N[C@@H](Cc1ccc(O)cc1)C(=O)NCC(=O)N[C@@H](CCC(=O)O)C(=O)N[C@@H](CC(C)C)C(=O)N[C@@H](C)C(=O)N[C@H](CCCNC(=N)N)C(=O)N[C@@H](CC(C)C)C(=O)N[C@@H](CCCCN)C(N)=O)[C@@H](C)O (H-[NMeF]VPIFTYGELA[dR]LK-NH2) came out at 34.3

Just so you know, measured T1/2 for CC[C@H](C)[C@H](NC(=O)[C@@H]1CCCN1C(=O)[C@@H](NC(=O)[C@H](Cc1ccccc1)[N+](C)(C)C)C(C)C)C(=O)N[C@@H](Cc1ccccc1)C(=O)N[C@H](C(=O)N[C@@H](Cc1ccc(O)cc1)C(=O)NCC(=O)N[C@@H](CCC(=O)O)C(=O)N[C@@H](CC(C)C)C(=O)N[C@@H](C)C(=O)N[C@H](CCCNC(=N)N)C(=O)N[C@@H](CC(C)C)C(=O)N[C@@H](CCCCN)C(N)=O)[C@@H](C)O (X1-VPIFTYGELA[dR]LK-NH2) came out at 125

Just so you know, measured T1/2 for CC[C@H](C)[C@H](NC(=O)[C@@H]1CCCN1C(=O)[C@@H](NC(=O)[C@H](Cc1ccccc1)NC)C(C)C)C(=O)N[C@@H](Cc1ccccc1)C(=O)N[C@H](C(=O)N[C@@H](Cc1ccc(O)cc1)C(=O)NCC(=O)N[C@@H](CCC(=O)O)C(=O)N[C@@H](CC(C)C)C(=O)N[C@@H](CCC(N)=O)C(=O)N[C@@H](CCCNC(=N)N)C(=O)N[C@@H](CC(C)C)C(=O)N[C@@H](CCCCN)C(N)=O)[C@@H](C)O (H-[NMeF]VPIFTYGELQRLK-NH2) came out at 20

Just so you know, measured T1/2 for CC[C@H](C)[C@H](NC(=O)[C@@H]1CCCN1C(=O)[C@@H](NC(=O)[C@H](Cc1ccccc1)NC)C(C)C)C(=O)N[C@@H](Cc1ccccc1)C(=O)N[C@H](C(=O)N[C@@H](Cc1ccc(O)cc1)C(=O)NCC(=O)N[C@@H](CCC(=O)O)C(=O)N[C@@H](CC(C)C)C(=O)N[C@@H](CCC(N)=O)C(=O)N[C@H](CCCNC(=N)N)C(=O)N[C@@H](CC(C)C)C(=O)N[C@@H](CCC(N)=O)C(=O)O)[C@@H](C)O [[N-MePhe^1, D-Arg^12, Leu^13]pMOT(1-14)] (H-[NMeF]VPIFTYGELQ[dR]LQ-OH) came out at 30

Just so you know, measured T1/2 for CC[C@H](C)[C@H](NC(=O)[C@@H]1CCCN1C(=O)[C@@H](NC(=O)[C@H](Cc1ccccc1)NC)C(C)C)C(=O)N[C@@H](Cc1ccccc1)C(=O)N[C@H](C(=O)N[C@@H](Cc1ccc(O)cc1)C(=O)NCC(=O)N[C@@H](CCC(=O)O)C(=O)N[C@@H](CC(C)C)C(=O)N[C@@H](C)C(=O)N[C@H](CCCNC(=N)N)C(=O)N[C@@H](CC(C)C)C(=O)N[C@H](CCC(N)=O)C(N)=O)[C@@H](C)O (H-[NMeF]VPIFTYGELA[dR]L[dQ]-NH2) came out at 32.6

====

I'd be grateful if you could share measured IC50 for these entries.
Target: motilin receptor (Oryctolagus cuniculus)
Construct: from tissue; host or cells: rabbit antral smooth muscle membranes
Assay: Determination of motilin receptor binding affinity (displacement of [125I-Tyr7, Nle13]motilin(porcine))
Parameters: species or system rabbit
Details: negative logarithm of the concentration displacing 50% of [125I-Tyr7, Nle13]motilin(porcine) from rabbit antral smooth muscle membranes; read-out: pIC50 (converted)
Experimental: The motilin receptor binding affinity of the peptides of this invention was determined by using the general procedure of Bormans, Peelers and Vantrappen, Regul. […] Fitting was performed using the iterative least-squares procedure of the SAS-software package (SAS Institute, Inc., Cary, N.C., USA).
Square brackets hold non-standard residues; d marks the D form. Peptide text beside a SMILES is read from it. * marks the point of attachment. X1 = C[N+](C)(C)[C@@H](Cc1ccccc1)C(=O)*; NMeF = CN[C@@H](Cc1ccccc1)C(=O)O
Output should be the measured figure followed by the unit it is expressed in.

Just so you know, measured IC50 for CC[C@H](C)[C@H](NC(=O)[C@@H]1CCCN1C(=O)[C@@H](NC(=O)[C@H](Cc1ccccc1)[N+](C)(C)C)C(C)C)C(=O)N[C@@H](Cc1ccccc1)C(=O)N[C@H](C(=O)N[C@@H](Cc1ccc(O)cc1)C(=O)NCC(=O)N[C@@H](CCC(=O)O)C(=O)N[C@@H](CC(C)C)C(=O)N[C@@H](C)C(=O)N[C@H](CCCNC(=N)N)C(=O)N[C@@H](CC(C)C)C(=O)N[C@H](CCC(N)=O)C(N)=O)[C@@H](C)O (X1-VPIFTYGELA[dR]L[dQ]-NH2) came out at 2.45 nM

Just so you know, measured IC50 for CC[C@H](C)[C@H](NC(=O)[C@@H]1CCCN1C(=O)[C@@H](NC(=O)[C@H](Cc1ccccc1)NC)C(C)C)C(=O)N[C@@H](Cc1ccccc1)C(=O)N[C@H](C(=O)N[C@@H](Cc1ccc(O)cc1)C(=O)NCC(=O)N[C@@H](CCC(=O)O)C(=O)N[C@@H](CC(C)C)C(=O)N[C@@H](CCC(N)=O)C(=O)N[C@@H](CCCNC(=N)N)C(=O)N[C@@H](CC(C)C)C(=O)N[C@@H](CCCCN)C(N)=O)[C@@H](C)O (H-[NMeF]VPIFTYGELQRLK-NH2) came out at 0.479 nM

====

Target: motilin receptor (Oryctolagus cuniculus, UniProt G1T803)
Construct: from tissue; host or cells: rabbit antral smooth muscle membranes
Sequence (G1T803 1-400): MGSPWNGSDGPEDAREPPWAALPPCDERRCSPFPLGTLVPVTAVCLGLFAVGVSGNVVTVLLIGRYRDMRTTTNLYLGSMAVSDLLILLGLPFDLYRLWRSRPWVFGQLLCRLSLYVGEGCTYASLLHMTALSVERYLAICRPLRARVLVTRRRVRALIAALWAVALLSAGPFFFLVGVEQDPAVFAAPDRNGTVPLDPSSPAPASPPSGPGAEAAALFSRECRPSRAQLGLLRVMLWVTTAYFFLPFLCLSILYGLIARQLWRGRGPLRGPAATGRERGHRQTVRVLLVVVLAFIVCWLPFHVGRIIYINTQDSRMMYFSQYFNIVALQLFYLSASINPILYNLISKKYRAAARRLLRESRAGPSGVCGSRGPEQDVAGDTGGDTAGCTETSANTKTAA
Assay: Determination of motilin receptor binding affinity (displacement of [125I-Tyr7, Nle13]motilin(porcine))
Set-up: species or system rabbit
Conditions: negative logarithm of the concentration displacing 50% of [125I-Tyr7, Nle13]motilin(porcine) from rabbit antral smooth muscle membranes; read-out: pIC50 (converted)
Square brackets hold non-standard residues; d marks the D form. Peptide text beside a SMILES is read from it. * marks the point of attachment. X1 = C[N+](C)(C)[C@@H](Cc1ccccc1)C(=O)*; NMe2Phe = CN(C)[C@@H](Cc1ccccc1)C(=O)*; NMeF = CN[C@@H](Cc1ccccc1)C(=O)O; Cha = N[C@@H](CC1CCCCC1)C(=O)O
quantityKind: IC50 (nM)
Provide only the numeric value, understood in nM.

Just so you know, measured IC50 for CC[C@H](C)[C@H](NC(=O)[C@H](C)NC(=O)[C@@H](NC(=O)[C@H](Cc1ccccc1)N(C)C)C(C)C)C(=O)N[C@@H](Cc1ccccc1)C(=O)N[C@H](C(=O)N[C@@H](Cc1ccc(O)cc1)C(=O)NCC(=O)N[C@@H](CCC(=O)O)C(=O)N[C@@H](CC(C)C)C(=O)N[C@@H](C)C(=O)N[C@H](CCCNC(=N)N)C(=O)N[C@@H](CC(C)C)C(=O)N[C@H](CCCCN)C(N)=O)[C@@H](C)O (NMe2Phe-VAIFTYGELA[dR]L[dK]-NH2) came out at 4.07

Just so you know, measured IC50 for CC[C@H](C)[C@H](NC(=O)[C@H](C)NC(=O)[C@@H](NC(=O)[C@H](Cc1ccccc1)[N+](C)(C)C)C(C)C)C(=O)N[C@@H](Cc1ccccc1)C(=O)N[C@H](C(=O)N[C@@H](Cc1ccc(O)cc1)C(=O)NCC(=O)N[C@@H](CCC(=O)O)C(=O)N[C@@H](CC(C)C)C(=O)N[C@@H](CCC(N)=O)C(=O)N[C@H](CCCNC(=N)N)C(=O)N[C@@H](CC(C)C)C(=O)N[C@@H](CCCCN)C(N)=O)[C@@H](C)O (X1-VAIFTYGELQ[dR]LK-NH2) came out at 1.91

Just so you know, measured IC50 for CC[C@H](C)[C@H](NC(=O)[C@@H]1CCCN1C(=O)[C@@H](NC(=O)[C@@H](N)CC1CCCCC1)C(C)C)C(=O)N[C@@H](Cc1ccccc1)C(=O)N[C@H](C(=O)N[C@@H](Cc1ccc(O)cc1)C(=O)NCC(=O)N[C@@H](CCC(=O)O)C(=O)N[C@@H](CC(C)C)C(=O)N[C@@H](CCC(N)=O)C(=O)N[C@H](CCCNC(=N)N)C(=O)N[C@@H](CC(C)C)C(=O)N[C@@H](CCC(N)=O)C(=O)O)[C@@H](C)O [[Cha^1, D-Arg^12, Leu^13]pMOT(1-14)] (H-[Cha]VPIFTYGELQ[dR]LQ-OH) came out at 1.78

Just so you know, measured IC50 for CC[C@H](C)[C@H](NC(=O)[C@@H]1CCCN1C(=O)[C@@H](NC(=O)[C@H](Cc1ccccc1)NC)C(C)C)C(=O)N[C@@H](Cc1ccccc1)C(=O)N[C@H](C(=O)N[C@@H](Cc1ccc(O)cc1)C(=O)NCC(=O)N[C@@H](CCC(=O)O)C(=O)N[C@@H](CC(C)C)C(=O)N[C@@H](C)C(=O)N[C@H](CCCNC(=N)N)C(=O)N[C@@H](CC(C)C)C(=O)N[C@H](CCC(N)=O)C(N)=O)[C@@H](C)O (H-[NMeF]VPIFTYGELA[dR]L[dQ]-NH2) came out at 0.851

Just so you know, measured IC50 for CC[C@H](C)[C@H](NC(=O)[C@H](C)NC(=O)[C@@H](NC(=O)[C@@H](N)Cc1ccccc1)C(C)C)C(=O)N[C@@H](Cc1ccccc1)C(=O)N[C@H](C(=O)N[C@@H](Cc1ccc(O)cc1)C(=O)NCC(=O)N[C@@H](CCC(=O)O)C(=O)N[C@@H](CC(C)C)C(=O)N[C@@H](CCC(N)=O)C(=O)N[C@H](CCCNC(=N)N)C(=O)N[C@@H](CC(C)C)C(=O)N[C@@H](CCC(N)=O)C(=O)O)[C@@H](C)O [[Ala^3, D-Arg^ 12, Leu^13]pMOT(1-14)] (H-FVAIFTYGELQ[dR]LQ-OH) came out at 2.14
